// provenance: patent US4451470A

Measured log10(ED50) of individual entries
tested on: writhing syndrome induced by phenylquinone in mice; assay: Analgesic test (phenylquinone writhing, anti-PQW); assay type: in vivo, mouse (female white mice); conditions: mouse; oral; phenylquinone i.p.; read-out: EFFECT ED50 Anti-PQW (Oral)
measurement.type: log10(ED50) (log10 of the value in mg/kg)

>  <compound>
CN1CC[C@]23c4c5ccc(O)c4OC2C(=O)CC[C@@]3(F)[C@H]1C5 (stereo partly drawn)

>  <measurement.type>
log10(ED50)

>  <observed.measurement>
0.38

$$$$
>  <compound>
COc1ccc2c3c1O[C@H]1C4(CCC5(F)C(C2)N(CC2CC2)CCC315)OCCO4 (stereo partly drawn)

>  <measurement.type>
log10(ED50)

>  <observed.measurement>
1.62

$$$$
>  <compound>
COc1ccc2c3c1O[C@H]1C(=O)CCC4(F)C(C2)N(CC2CCC2)CCC314 (stereo partly drawn)

>  <measurement.type>
log10(ED50)

>  <observed.measurement>
1.44

$$$$
>  <compound>
COc1ccc2c3c1O[C@H]1C4(CCC5(F)C(C2)N(C)CCC315)OCCO4 (stereo partly drawn)

>  <measurement.type>
log10(ED50)

>  <observed.measurement>
0.70

$$$$
>  <compound>
COc1ccc2c3c1O[C@H]1C(=O)CCC4(F)C(C2)N(C)CCC314 (stereo partly drawn)

>  <measurement.type>
log10(ED50)

>  <observed.measurement>
0.80

$$$$
>  <compound>
Oc1ccc2c3c1O[C@H]1[C@@H](O)CCC4(F)C(C2)N(CC2CCC2)CCC314 (stereo partly drawn)

>  <measurement.type>
log10(ED50)

>  <observed.measurement>
1.48

$$$$
>  <compound>
COc1ccc2c3c1O[C@H]1C4(CCC5(F)C(C2)N(CC2CCC2)CCC315)OCCO4 (stereo partly drawn)

>  <measurement.type>
log10(ED50)

>  <observed.measurement>
1.05

$$$$

###

Reported ED50 by item:
tested on: Straub tail induced by morphine sulfate in mice; assay: Narcotic antagonist test (mouse anti-Straub tail test against morphine); assay type: in vivo, mouse (female CF1 S); details: sc, vs 30 mg/kg morphine sulfate i.p., read-out: EFFECT ED50 Anti-Straub Tail (s.c.)
measurement.type: ED50 (mg/kg)

>  <compound>
COc1ccc2c3c1O[C@H]1C4(CCC5(F)C(C2)N(CC2CC2)CCC315)OCCO4 (stereo partly drawn)

>  <value.relation.sign>
=

>  <observed.measurement>
1.7

$$$$
>  <compound>
COc1ccc2c3c1O[C@H]1C4(CCC5(F)C(C2)N(C)CCC315)OCCO4 (stereo partly drawn)

>  <value.relation.sign>
>

>  <observed.measurement>
135

$$$$
>  <compound>
Oc1ccc2c3c1O[C@H]1[C@@H](O)CCC4(F)C(C2)N(CC2CCC2)CCC314 (stereo partly drawn)

>  <value.relation.sign>
=

>  <observed.measurement>
0.41

$$$$
>  <compound>
COc1ccc2c3c1O[C@H]1C(=O)CCC4(F)C(C2)N(C)CCC314 (stereo partly drawn)

>  <value.relation.sign>
>

>  <observed.measurement>
135

$$$$
>  <compound>
COc1ccc2c3c1OC1C(=O)CC[C@@]4(F)[C@@H](C2)N(CC2CC2)CC[C@]314 (stereo partly drawn)

>  <value.relation.sign>
=

>  <observed.measurement>
0.33

$$$$
>  <compound>
COc1ccc2c3c1O[C@H]1C4(CCC5(F)C(C2)N(CC2CCC2)CCC315)OCCO4 (stereo partly drawn)

>  <value.relation.sign>
>

>  <observed.measurement>
135

$$$$
>  <compound>
COc1ccc2c3c1O[C@H]1C(=O)CCC4(F)C(C2)N(CC2CCC2)CCC314 (stereo partly drawn)

>  <value.relation.sign>
=

>  <observed.measurement>
6

$$$$
>  <compound>
O=C1CC[C@@]2(F)[C@H]3Cc4ccc(O)c5c4[C@@]2(CCN3CC2CC2)C1O5 (stereo partly drawn)

>  <value.relation.sign>
=

>  <observed.measurement>
0.01

$$$$
>  <compound>
CN1CC[C@]23c4c5ccc(O)c4OC2C(=O)CC[C@@]3(F)[C@H]1C5 (stereo partly drawn)

>  <value.relation.sign>
>

>  <observed.measurement>
81

$$$$
